Assay: Antiproliferative activity against HEK293 cells assessed as cell growth inhibition at 10 uM incubated for 48 hrs by MTT assay relative to control
Assay type: toxicity, cell-based
Settings: human
QUANTITY: inhibition at 48 h, 10 µM (%)

In [3]: df
Out[3]:
                                    compound  readout_number
 0  COc1cc(O)c2c(=O)cc(/C=C/c3c(F)ccc(F)c3Cl)oc2c1[C@H]1CC[N+](C)([O-])C[C@H]1O (stereo partly specified)              20
 1  C[N+]1([O-])CC[C@H](c2c(O)cc(O)c3c(=O)cc(/C=C/c4ccccc4I)oc23)[C@H](O)C1 (stereo partly specified)            13.4
 2  CN1CC[C@H](c2c(O)cc(O)c3c(=O)cc(/C=C/c4c(Cl)cccc4Cl)oc23)[C@H](O)C1            20.6
 3  COc1cc(O)c2c(=O)cc(/C=C/c3ccc(F)c(Cl)c3)oc2c1[C@H]1CC[N+](C)([O-])C[C@H]1O (stereo partly specified)             6.9
 4  C[N+]1([O-])CC[C@H](c2c(O)cc(O)c3c(=O)cc(/C=C/c4cc(Cl)cc(Cl)c4)oc23)[C@H](O)C1 (stereo partly specified)            14.8
 5  C[N+]1([O-])CC[C@H](c2c(O)cc(O)c3c(=O)cc(/C=C/c4ccccc4)oc23)[C@H](O)C1 (stereo partly specified)             8.2
 6  COc1cc(O)c2c(=O)cc(/C=C/c3c(F)cccc3Cl)oc2c1[C@H]1CC[N+](C)([O-])C[C@H]1O (stereo partly specified)            14.9
 7  C[N+]1([O-])CC[C@H](c2c(O)cc(O)c3c(=O)cc(/C=C/c4c(Cl)cccc4Cl)oc23)[C@H](O)C1 (stereo partly specified)            24.1
 8  CCOc1cc(O)c2c(=O)cc(/C=C/c3c(F)cccc3Cl)oc2c1[C@H]1CC[N+](C)([O-])C[C@H]1O (stereo partly specified)            22.8
 9  C[N+]1([O-])CC[C@H](c2c(O)cc(O)c3c(=O)cc(/C=C/c4ccc(Cl)cc4Br)oc23)[C@H](O)C1 (stereo partly specified)            21.4
10  C[N+]1([O-])CC[C@H](c2c(O)cc(O)c3c(=O)cc(/C=C/c4ccccc4F)oc23)[C@H](O)C1 (stereo partly specified)            18.8
11  C[N+]1([O-])CC[C@H](c2c(O)cc(O)c3c(=O)cc(/C=C/c4c(F)cccc4Cl)oc23)[C@H](O)C1 (stereo partly specified)            19.3
12  C[N+]1([O-])CC[C@H](c2c(O)cc(O)c3c(=O)cc(/C=C/c4ccccc4Br)oc23)[C@H](O)C1 (stereo partly specified)            17.2
13  C[N+]1([O-])CC[C@H](c2c(O)cc(O)c3c(=O)cc(/C=C/c4ccccc4Cl)oc23)[C@H](O)C1 (stereo partly specified)            29.7
14  Cc1cc(=O)c2c(O)cc(O)c([C@H]3CC[N+](C)([O-])C[C@H]3O)c2o1 (stereo partly specified)            14.3
15  C[N+]1([O-])CC[C@H](c2c(O)cc(O)c3c(=O)cc(/C=C/c4ccc(Cl)cc4Cl)oc23)[C@H](O)C1 (stereo partly specified)            18.2
